target: UniProt:P11511; assay: Receptor binding assay panel: CYP450, 19
Sequence (P11511 whole entry): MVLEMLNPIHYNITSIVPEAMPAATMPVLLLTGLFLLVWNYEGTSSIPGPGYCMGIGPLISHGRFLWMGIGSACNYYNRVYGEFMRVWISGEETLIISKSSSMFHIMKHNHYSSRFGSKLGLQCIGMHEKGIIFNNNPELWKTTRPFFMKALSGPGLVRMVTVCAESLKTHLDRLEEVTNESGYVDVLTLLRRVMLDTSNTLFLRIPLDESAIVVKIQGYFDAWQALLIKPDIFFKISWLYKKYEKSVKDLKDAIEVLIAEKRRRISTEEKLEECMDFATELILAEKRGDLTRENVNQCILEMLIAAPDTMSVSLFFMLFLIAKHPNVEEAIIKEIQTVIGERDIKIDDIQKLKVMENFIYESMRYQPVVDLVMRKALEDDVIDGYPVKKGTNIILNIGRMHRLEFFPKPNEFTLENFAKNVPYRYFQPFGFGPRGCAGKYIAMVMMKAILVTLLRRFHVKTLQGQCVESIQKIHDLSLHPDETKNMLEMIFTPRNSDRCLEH
Where a name gives a salt, the structure may show the parent alone.
measured-attribute: inhibition at 10 µM (%)
Dear colleague, please return just the value in %, with no unit written.

Lab request: please report inhibition at 10 µM under test system UniProt:P11511 for C[C@]12CC[C@H](CC(=O)O)CC1C(O)CC1C2CC[C@]2(C)C(=O)CCC12 (stereo in doubt) [CVie216-salt]
0

---

assay: Acute toxicity in the mouse; settings: Albino Swiss CD-1, in vivo, iv
Structures can show the parent of a compound that is named as a salt.
measured-attribute: LD50 at 24 h

Sample answers from the record:
C[C@]12CC[C@H](CC(=O)O)CC1C(O)CC1C2CC[C@]2(C)C(=O)CCC12 (stereo in doubt) [CVie216-salt]	> 300 mg/kg
C[C@]12CC/C(=N/OCCN)C[C@@H]1C(=O)C[C@@H]1[C@@H]2CC[C@]2(C)C(=O)CC[C@@H]12 [Istaroxime, reference compound]	29 to 32 mg/kg

Find the recorded LD50 at 24 h belonging to C[C@]12CC[C@H](CCCC(=O)O)CC1[C@@H](O)CC1C2CC[C@]2(C)C(=O)CCC12 (stereo partly drawn) [CVie214-salt] and report it.
300 mg/kg

---

Reported Kd values for the following compounds.
molecular target: SERCA2a (Cavia porcellus, UniProt A0A286XD73); assay: SERCA2a ATPase activity in heart-derived SR microsomes from normal guinea-pig; format: biochemical; settings: read-out: Kd Ca2+ (nM) mean ± SD, compound 1 nM
Sequence (A0A286XD73 1-997): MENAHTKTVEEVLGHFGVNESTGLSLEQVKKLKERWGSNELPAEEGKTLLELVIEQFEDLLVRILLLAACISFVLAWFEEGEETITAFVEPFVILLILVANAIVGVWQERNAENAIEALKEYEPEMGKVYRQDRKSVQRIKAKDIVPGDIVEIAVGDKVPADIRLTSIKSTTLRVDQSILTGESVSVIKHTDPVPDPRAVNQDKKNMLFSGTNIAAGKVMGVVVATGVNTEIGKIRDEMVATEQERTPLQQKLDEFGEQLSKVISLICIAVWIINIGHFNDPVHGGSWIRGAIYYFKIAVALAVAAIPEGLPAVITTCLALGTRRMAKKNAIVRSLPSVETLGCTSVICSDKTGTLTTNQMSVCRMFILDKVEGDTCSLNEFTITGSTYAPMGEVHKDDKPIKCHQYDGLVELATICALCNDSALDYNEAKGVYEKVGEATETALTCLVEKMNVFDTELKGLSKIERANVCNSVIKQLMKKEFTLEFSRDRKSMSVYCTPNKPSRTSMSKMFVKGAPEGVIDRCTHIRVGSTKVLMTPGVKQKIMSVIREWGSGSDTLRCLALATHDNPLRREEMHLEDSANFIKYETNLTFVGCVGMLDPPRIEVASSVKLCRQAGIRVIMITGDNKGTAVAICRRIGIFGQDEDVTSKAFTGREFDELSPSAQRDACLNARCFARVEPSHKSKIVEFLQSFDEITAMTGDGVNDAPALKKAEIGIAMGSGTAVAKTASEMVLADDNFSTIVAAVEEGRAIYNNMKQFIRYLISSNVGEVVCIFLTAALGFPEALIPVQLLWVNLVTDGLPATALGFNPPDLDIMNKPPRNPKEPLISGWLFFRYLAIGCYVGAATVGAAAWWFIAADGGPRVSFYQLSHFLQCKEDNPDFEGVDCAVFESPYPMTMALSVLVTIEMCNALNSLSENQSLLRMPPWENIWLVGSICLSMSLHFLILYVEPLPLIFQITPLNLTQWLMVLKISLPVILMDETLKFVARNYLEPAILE
Field: numeric (nM). Do not append units.

Worked examples, 3 compounds total:
C[C@]12CC[C@H](CC(=O)O)CC1C(O)CC1C2CC[C@]2(C)C(=O)CCC12 (stereo in doubt)	529
CCOC(=O)CCC[C@H]1CC[C@]2(C)C3CC[C@]4(C)C(=O)CCC4C3C[C@H](O)C2C1 (stereo partly shown)	763
CCOC(=O)CCCCC[C@H]1CC[C@]2(C)C3CC[C@]4(C)C(=O)CCC4C3C[C@H](O)C2C1 (stereo partly shown)	705

Which Kd is listed for C[C@]12CC[C@H](CCCC(=O)O)CC1[C@@H](O)CC1C2CC[C@]2(C)C(=O)CCC12 (stereo partly shown) ?
474

---

target: dog renal Na^+/K^+ ATPase (Canis lupus familiaris (Dog) (Canis familiaris)); test: biochemical; conditions: IC50 inhibition of dog renal Na+/K+ ATPase, purified dog kidney enzyme
Label Yes when IC50 < 4 µM; otherwise No.

Consider the worked cases shown below.
C[C@]12CC[C@H](CC(=O)O)CC1C(O)CC1C2CC[C@]2(C)C(=O)CCC12 (stereo in doubt)	No
CCOC(=O)CCCCC[C@H]1CC[C@]2(C)C3CC[C@]4(C)C(=O)CCC4C3C[C@H](O)C2C1 (some centres unmarked)	No
C[C@]12CC[C@H](CCC3CCNCC3)CC1[C@@H](CO)[C@@H](O)[C@@H]1[C@@H]2CC[C@]2(C)C(=O)CC[C@@H]12 (some centres unmarked)	Yes
C[C@]12CC/C(=C\CCC(=O)O)CC1[C@H](O)C[C@@H]1[C@@H]2CC[C@]2(C)C(=O)CC[C@@H]12 (some centres unmarked)	No

Could you please tell me whether IC50 recorded for C[C@]12CC/C(=C\CC3CCNCC3)CC1[C@@H](O)C[C@@H]1[C@@H]2CC[C@]2(C)C(=O)CC[C@@H]12 (some centres unmarked) is less than 4 µM?
No

Is it true that IC50 reported for CCOC(=O)CCC[C@H]1CC[C@]2(C)C3CC[C@]4(C)C(=O)CCC4C3C[C@H](O)C2C1 (some centres unmarked) is less than 4 µM?
No

I'd appreciate it if you could check whether CNCCCCC=C1CC[C@]2(C)C3CC[C@]4(C)C(=O)CCC4C3[C@H](O)[C@H](CO)C2C1 (mixture of isomers) has IC50 smaller than 4 µM.
Yes

Please let me know if C[C@]12CCC(=CCC3CCNCC3)CC1[C@@H](CO)C(=O)C1C2CC[C@]2(C)C(=O)CCC12 (mixture of isomers) shows IC50 below 4 µM.
No

Problem: For the compound C[C@]12CC[C@H](CCC3CNC3)CC1[C@@H](CO)C(=O)C1C2CC[C@]2(C)C(=O)CCC12 (some centres unmarked) , is IC50 under 4 µM?
Yes

Determine whether this compound shows IC50 lower than 4 µM (ties excluded): CCOC(=O)C[C@H]1CC[C@]2(C)C3CC[C@]4(C)C(=O)CCC4C3C[C@H](O)C2C1 (some centres unmarked)
No

Determine if C[C@]12CCC(=CCCCN)CC1[C@@H](O)C[C@@H]1[C@@H]2CC[C@]2(C)C(=O)CC[C@@H]12 (mixture of isomers) shows IC50 strictly lower than 4 µM.
Yes

In the record for C[C@]12CC/C(=C/CC3CCNCC3)CC1[C@@H](O)C[C@@H]1[C@@H]2CC[C@]2(C)C(=O)CC[C@@H]12 (some centres unmarked) , is IC50 less than 4 µM?
No

Criterion: IC50 strictly below 4 µM. Is it met by C[C@]12CC[C@H](CCCC(=O)O)CC1[C@H](O)C[C@@H]1[C@@H]2CC[C@]2(C)C(=O)CC[C@@H]12 (some centres unmarked) ?
No

Lab log: compare recorded IC50 with 4 µM; is it strictly lower for C[C@]12CC[C@H](CCC3CCNC3)CC1[C@@H](CO)[C@@H](O)C1C2CC[C@]2(C)C(=O)CCC12 (some centres unmarked) ?
Yes

---

Parameter pIC50: see the listing below.
molecular target: dog renal Na^+/K^+ ATPase (Canis lupus familiaris (Dog) (Canis familiaris)); experiment: biochemical; conditions: IC50 inhibition of dog renal Na+/K+ ATPase, purified dog kidney enzyme;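 note: enzyme preincubated with inhibitor 10 min at 37 °C, then K^+ and ^32P-ATP added for 15 min, released ^32P counted, activity relative to untreated control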
Friendly reminder that pIC50 comes from taking -log10 of the concentration in mol/L.

C[C@]12CC/C(=C\CC3CNC3)CC1[C@@H](CO)C(=O)C1C2CC[C@]2(C)C(=O)CCC12 (stereo partly drawn)	5.54
C[C@]12CCC(=CCC3CCNC3)CC1[C@@H](CO)C(=O)C1C2CC[C@]2(C)C(=O)CCC12 (mixture of isomers)	5.34
C[C@]12CC[C@H](CCC3CCNCC3)CC1[C@@H](CO)C(=O)[C@@H]1[C@@H]2CC[C@]2(C)C(=O)CC[C@@H]12 (stereo partly drawn)	5.72
C[C@]12CC/C(=N/OCCN)C[C@@H]1C(=O)C[C@@H]1[C@@H]2CC[C@]2(C)C(=O)CC[C@@H]12 [Istaroxime, reference compound]	6.85
C[C@]12CC/C(=C\CC3CNC3)CC1[C@@H](O)C[C@@H]1[C@@H]2CC[C@]2(C)C(=O)CC[C@@H]12 (stereo partly drawn)	5.15
C[C@]12CC[C@H](CCC3CCNCC3)CC1[C@@H](O)C[C@@H]1[C@@H]2CC[C@]2(C)C(=O)CC[C@@H]12 (stereo partly drawn)	5.46

Please examine the following record next.
Give dog renal Na^+/K^+ ATPase (Canis lupus familiaris (Dog) (Canis familiaris)) pIC50 for C[C@]12CC[C@H](CCC3CCNC3)CC1[C@@H](CO)C(=O)C1C2CC[C@]2(C)C(=O)CCC12 (stereo partly drawn)
5.47

---

As shown below, each of these compounds has a reported % change in Ca2+ Kd vs control (negative = decrease) value.
molecular target: SERCA2a (Cavia porcellus, UniProt A0A286XD73); test: SERCA2a ATPase activity in heart-derived SR microsomes from normal guinea-pig; assay type: biochemical; conditions: compound 200 nM
// note: answer is a bare numeric in %*

// worked examples, % change in Ca2+ Kd vs control (negative = decrease) included
CCOC(=O)C[C@H]1CC[C@]2(C)C3CC[C@]4(C)C(=O)CCC4C3C[C@H](O)C2C1 (stereo partly shown)	−17
CCOC(=O)CCC[C@H]1CC[C@]2(C)C3CC[C@]4(C)C(=O)CCC4C3C[C@H](O)C2C1 (stereo partly shown)	−29.4
C[C@]12CC/C(=C\CCC(=O)O)CC1[C@H](O)C[C@@H]1[C@@H]2CC[C@]2(C)C(=O)CC[C@@H]12 (stereo partly shown)	−14
C[C@]12CC[C@H](CCC3CCNCC3)CC1[C@@H](CO)[C@@H](O)[C@@H]1[C@@H]2CC[C@]2(C)C(=O)CC[C@@H]12 (stereo partly shown)	−19.6
C[C@]12CC/C(=C\CC3CNC3)CC1[C@@H](O)C[C@@H]1[C@@H]2CC[C@]2(C)C(=O)CC[C@@H]12 (stereo partly shown)	−13.1

What value of measured % change in Ca2+ Kd vs control (negative = decrease) is listed for CCOC(=O)CCCCC[C@H]1CC[C@]2(C)C3CC[C@]4(C)C(=O)CCC4C3C[C@H](O)C2C1 (stereo partly shown) ?
−15

---

target: UniProt A0A286XD73; assay: SERCA2a ATPase activity in heart-derived SR microsomes from normal guinea-pig; format: biochemical; conditions: read-out: Kd Ca2+ (nM) mean ± SD, compound 200 nM
Entries and their Kd
Only the number, expressed in nM, is required.

C[C@]12CC[C@H](CC(=O)O)CC1C(O)CC1C2CC[C@]2(C)C(=O)CCC12 (stereo in doubt) [CVie216]	463
C[C@]12CC[C@H](CCC3CNC3)CC1[C@@H](CO)C(=O)C1C2CC[C@]2(C)C(=O)CCC12 (stereo partly drawn) [CVie407]	428
C[C@]12CC/C(=C\CC3CNC3)CC1[C@@H](O)C[C@@H]1[C@@H]2CC[C@]2(C)C(=O)CC[C@@H]12 (stereo partly drawn) [CVie205]	683

Below: the item to evaluate.
Need Kd of C[C@]12CC[C@H](CCCC(=O)O)CC1[C@@H](O)CC1C2CC[C@]2(C)C(=O)CCC12 (stereo partly drawn) [CVie214] , thanks.
409
